system: 883617-216-R-J1-PDC tumor spheroids, viability; assay: Anticancer human tumor 883617-216-R-J1-PDC patient-derived bladder carcinoma cell line growth inhibition [PI3K]; conditions: second compound 3.16 µM; first compound 1 µM; spheroids with HUVEC and MSC; active = viability on the fitted dose curve at most 10% of control; inactive = the rest
Mark one answer only. Choices: active, inactive

A selection of reference data follows.
C=CC(=O)N1CCN(c2nc(=O)n(-c3c(C)ccnc3C(C)C)c3nc(-c4c(O)cccc4F)c(F)cc23)C(C)C1 (configuration not stated) + Cc1nc(NC(=O)N2CCCC2C(N)=O)sc1-c1ccnc(C(C)(C)C(F)(F)F)c1 | active
CC1(C)CCC(Nc2ncc(C(F)(F)F)c(-c3c[nH]c4c(P(C)(C)=O)c(C#N)ccc34)n2)CN1 (configuration not stated) + Cc1nc(NC(=O)N2CCCC2C(N)=O)sc1-c1ccnc(C(C)(C)C(F)(F)F)c1 | active
CC1(C)CCC(Nc2ncc(C(F)(F)F)c(-c3c[nH]c4c(P(C)(C)=O)c(C#N)ccc34)n2)CN1 (configuration not stated) + CC(Nc1ncnc2nc[nH]c12)c1cc2cccc(Cl)c2c(=O)n1-c1ccccc1 | inactive
CNC(=O)c1ccc(N2C(=S)N(c3ccc(C#N)c(C(F)(F)F)c3)C(=O)C2(C)C)cc1F + Cc1nc(NC(=O)N2CCCC2C(N)=O)sc1-c1ccnc(C(C)(C)C(F)(F)F)c1 | inactive
C[C@@H](NC(=O)c1ncnc(N)c1Cl)c1ncc(C(=O)Nc2cc(C(F)(F)F)c(Cl)cn2)s1 + CC(Nc1ncnc2nc[nH]c12)c1cc2cccc(Cl)c2c(=O)n1-c1ccccc1 | inactive
Cn1ncc(Cl)c1-c1cc(C(=O)NC(CN)Cc2cccc(F)c2)sc1Cl (configuration not stated) + Cc1nc(NC(=O)N2CCCC2C(N)=O)sc1-c1ccnc(C(C)(C)C(F)(F)F)c1 | active

Prompt: Assay result, entry CC(C)NCC(C(=O)N1CCN(c2ncnc3c2C(C)CC3O)CC1)c1ccc(Cl)cc1 (configuration not stated) + CC(Nc1ncnc2nc[nH]c12)c1cc2cccc(Cl)c2c(=O)n1-c1ccccc1 — outcome?
Completion: inactive

====

tested on: 883617-216-R-J1-PDC tumor spheroids, viability; assay: Anticancer human tumor 883617-216-R-J1-PDC cell line growth inhibition [PI3K]; conditions: second compound 10 µM; first compound 0.316 µM; spheroids with HUVEC and MSC; active means viability on the fitted dose curve at most 10% of control; inactive means the rest;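 note: spheroids exposed to agents for 7 days before the viability read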
The reply should name one outcome from 1.0 (active), 0.0 (inactive)

Prompt: Hi team, can someone confirm the assay call for CNC(=O)c1ccc(N2C(=S)N(c3ccc(C#N)c(C(F)(F)F)c3)C(=O)C2(C)C)cc1F + CC(Nc1ncnc2nc[nH]c12)c1cc2cccc(Cl)c2c(=O)n1-c1ccccc1 ?
Completion: 0.0

Prompt: Could you kindly confirm the outcome this assay logged for Cn1ncc(Cl)c1-c1cc(C(=O)NC(CN)Cc2cccc(F)c2)sc1Cl (centres undefined) + Cc1nc(NC(=O)N2CCCC2C(N)=O)sc1-c1ccnc(C(C)(C)C(F)(F)F)c1 ?
Completion: 1.0

Prompt: Kindly provide the recorded test outcome for the following compound: C=CC(=O)N1CCN(c2nc(=O)n(-c3c(C)ccnc3C(C)C)c3nc(-c4c(O)cccc4F)c(F)cc23)C(C)C1 (centres undefined) + CC(Nc1ncnc2nc[nH]c12)c1cc2cccc(Cl)c2c(=O)n1-c1ccccc1
Completion: 0.0

Prompt: Please indicate how the test categorized CC1(C)CCC(Nc2ncc(C(F)(F)F)c(-c3c[nH]c4c(P(C)(C)=O)c(C#N)ccc34)n2)CN1 (centres undefined) + CC(Nc1ncnc2nc[nH]c12)c1cc2cccc(Cl)c2c(=O)n1-c1ccccc1 .
Completion: 0.0

Prompt: For CC1(C)CCC(CN2CCN(c3ccc(C(=O)NS(=O)(=O)c4ccc(NCC5CCOCC5)c([N+](=O)[O-])c4)c(Oc4cnc5[nH]ccc5c4)c3)CC2)=C(c2ccc(Cl)cc2)C1 + CC(Nc1ncnc2nc[nH]c12)c1cc2cccc(Cl)c2c(=O)n1-c1ccccc1 , which call appears in the assay record?
Completion: 0.0

Prompt: Check the results log: what was the call for CCN1CCN(Cc2ccc(Nc3ncc(F)c(-c4cc(F)c5nc(C)n(C(C)C)c5c4)n3)nc2)CC1 + Cc1nc(NC(=O)N2CCCC2C(N)=O)sc1-c1ccnc(C(C)(C)C(F)(F)F)c1 ?
Completion: 1.0

Prompt: What did the test return for CCN1CCN(Cc2ccc(Nc3ncc(F)c(-c4cc(F)c5nc(C)n(C(C)C)c5c4)n3)nc2)CC1 + CC(Nc1ncnc2nc[nH]c12)c1cc2cccc(Cl)c2c(=O)n1-c1ccccc1 ?
Completion: 0.0

Prompt: Which outcome did this test record for the compound Cn1nccc1Nc1nccc(-c2ccn(C(CO)c3ccc(Cl)c(F)c3)c(=O)c2)n1 (centres undefined) + CC(Nc1ncnc2nc[nH]c12)c1cc2cccc(Cl)c2c(=O)n1-c1ccccc1 ?
Completion: 0.0

Prompt: I'd appreciate the recorded outcome for C=CC(=O)N1CCN(c2nc(=O)n(-c3c(C)ccnc3C(C)C)c3nc(-c4c(O)cccc4F)c(F)cc23)C(C)C1 (centres undefined) + Cc1nc(NC(=O)N2CCCC2C(N)=O)sc1-c1ccnc(C(C)(C)C(F)(F)F)c1 from this test.
Completion: 1.0

====

The reader will find reported viability, T/C values listed item by item below.
system: 883617-216-R-J1-PDC tumor spheroids, viability; experiment: Anticancer human tumor 883617-216-R-J1-PDC cell line growth inhibition [PI3K]; settings: second compound 1 µM; first compound 0.0316 µM; stronger effect = lower value; spheroids with HUVEC and MSC;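 note: spheroids exposed to agents for 7 days before the viability read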

CNC(=O)c1ccc(N2C(=S)N(c3ccc(C#N)c(C(F)(F)F)c3)C(=O)C2(C)C)cc1F + CC(Nc1ccc2c(c1)OCCn1cc(N3C(=O)OCC3C(F)F)nc1-2)C(N)=O | 16.9%
CC(Cn1ccc(-c2ccc(C#N)c(Cl)c2)n1)NC(=O)c1cc(C(C)O)[nH]n1 (centres undefined) + CC(Nc1ccc2c(c1)OCCn1cc(N3C(=O)OCC3C(F)F)nc1-2)C(N)=O | 15.8%

Prompt: For the compound shown here, CC(=O)c1c(C)c2cnc(Nc3ccc(N4CCNCC4)cn3)nc2n(C2CCCC2)c1=O + CC(Nc1ncnc2nc[nH]c12)c1cc2cccc(Cl)c2c(=O)n1-c1ccccc1 , give the reported viability, T/C.
Completion: 58.6%

Prompt: Field request: viability, T/C | item: Cn1ncc(Cl)c1-c1cc(C(=O)NC(CN)Cc2cccc(F)c2)sc1Cl (centres undefined) + Cc1nc(NC(=O)N2CCCC2C(N)=O)sc1-c1ccnc(C(C)(C)C(F)(F)F)c1
Completion: 29.2%

====

test system: 883617-216-R-J1-PDC tumor spheroids, viability; test: Anticancer human tumor 883617-216-R-J1-PDC cell line growth inhibition [PI3K]; conditions: second compound 0.0316 µM; first compound 0.316 µM; stronger effect = lower value; spheroids with HUVEC and MSC;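 note: spheroids exposed to agents for 7 days before the viability read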
measuredAttribute: viability, T/C (%)
Value expressed in %; do not type the unit.

Look over these answered cases.
Cn1ncc(Cl)c1-c1cc(C(=O)NC(CN)Cc2cccc(F)c2)sc1Cl (stereo not drawn) + CC(Nc1ncnc2nc[nH]c12)c1cc2cccc(Cl)c2c(=O)n1-c1ccccc1 | 58.2
CNC(=O)c1ccc(N2C(=S)N(c3ccc(C#N)c(C(F)(F)F)c3)C(=O)C2(C)C)cc1F + CC(Nc1ccc2c(c1)OCCn1cc(N3C(=O)OCC3C(F)F)nc1-2)C(N)=O | 59
CNC(=O)c1ccc(N2C(=S)N(c3ccc(C#N)c(C(F)(F)F)c3)C(=O)C2(C)C)cc1F + CC(Nc1ncnc2nc[nH]c12)c1cc2cccc(Cl)c2c(=O)n1-c1ccccc1 | 92.8
CCCS(=O)(=O)Nc1ccc(F)c(C(=O)c2c[nH]c3ncc(-c4ccc(Cl)cc4)cc23)c1F + CC(Nc1ccc2c(c1)OCCn1cc(N3C(=O)OCC3C(F)F)nc1-2)C(N)=O | 64.4
CCCS(=O)(=O)Nc1ccc(F)c(C(=O)c2c[nH]c3ncc(-c4ccc(Cl)cc4)cc23)c1F + COc1c(OCCCN2CCOCC2)ccc2c3n(c(=NC(=O)c4cnc(N)nc4)nc12)CCN3 | 47
C=CC(=O)N1CCN(c2nc(=O)n(-c3c(C)ccnc3C(C)C)c3nc(-c4c(O)cccc4F)c(F)cc23)C(C)C1 (stereo not drawn) + Cc1nc(NC(=O)N2CCCC2C(N)=O)sc1-c1ccnc(C(C)(C)C(F)(F)F)c1 | 44.1
C[C@@H](NC(=O)c1ncnc(N)c1Cl)c1ncc(C(=O)Nc2cc(C(F)(F)F)c(Cl)cn2)s1 + CC(Nc1ccc2c(c1)OCCn1cc(N3C(=O)OCC3C(F)F)nc1-2)C(N)=O | 65.3

Here is the next item to consider.
Prompt: // map C=CC(=O)N1CCN(c2nc(=O)n(-c3c(C)ccnc3C(C)C)c3nc(-c4c(O)cccc4F)c(F)cc23)C(C)C1 (stereo not drawn) + CC(Nc1ncnc2nc[nH]c12)c1cc2cccc(Cl)c2c(=O)n1-c1ccccc1 to recorded viability, T/C (system: 883617-216-R-J1-PDC tumor spheroids, viability)
Completion: 49.5

Reference source: PubChem BioAssay AID1963973
